- tested.system: human MTHFD2 (Homo sapiens)
- Sequence (P13995 36-350): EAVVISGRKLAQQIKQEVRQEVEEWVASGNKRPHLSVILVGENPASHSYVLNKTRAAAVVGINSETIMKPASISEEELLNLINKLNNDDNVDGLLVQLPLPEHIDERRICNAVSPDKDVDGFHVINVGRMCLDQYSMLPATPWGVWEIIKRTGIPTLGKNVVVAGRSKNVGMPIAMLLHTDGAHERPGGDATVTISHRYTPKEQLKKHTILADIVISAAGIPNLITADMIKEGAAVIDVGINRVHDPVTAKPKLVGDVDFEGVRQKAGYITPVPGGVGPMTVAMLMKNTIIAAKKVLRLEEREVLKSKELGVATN
quantity.measured: IC50 (µM)
Answers are plain numbers, in µM.

In [3]: df
Out[3]:
                            chemical_smiles  quantity_measured  reported
0  Cn1c(NC(=O)Nc2ccc(C(=O)O)cc2)cc(=O)n(Cc2ccc(Cl)c(Cl)c2)c1=O               IC50      6.21
1  Cn1c(Nc2ccc(C(=O)N[C@@H](CCC(=O)O)C(=O)O)cc2)nc2c1c(=O)n(Cc1cc3c(Cl)cccc3[nH]1)c(=O)n2C               IC50      0.19

Next molecule, IC50 to be filled in.
IN: Entry under review: "Cc1cc(Nc2nc3c(c(=O)n(Cc4cc5c(Cl)cccc5[nH]4)c(=O)n3C)n2C)nc(CCC(=O)O)n1" . Reported IC50?
OUT: 0.69

Hello, the source for this data is paper PMC8389891, in case you need it.
